Test system: NCI-H23 lung
Assay: NCI-60 one-dose screen, 48 h (100 = growth as untreated, 0 = no growth, -100 = all killed)
Details: 10 µM unless noted
Compounds without any hit were thinned out: in the full panel of roughly 83,000, 20% have a hit.
Can you tell me growth for the items I'm about to list?
Numbers only, in %.

Solved entries:
COc1ccc(C(=O)/C=C/c2cccc(Cl)c2Cl)cc1S(N)(=O)=O ... -15.6
O=C(N=Nc1c(O)[nH]c2ccc([N+](=O)[O-])cc12)c1ccc2nc(-c3ccccc3)[nH]c2c1 ... 64.7
Cn1cc(-c2nc(N)nnc2-c2c[nH]c3ccc(F)cc23)c2cccnc21 ... 35.2

Can you give me growth for all of these, one by one?
1. COc1ccc(C(=O)/C=C/c2cc3c(cc2Br)OCO3)cc1S(N)(=O)=O
2. Cc1cnc(C(=O)NNc2nc3cc(F)ccc3n3c(C(=O)N4CC5CC(C4)N5)ccc23)cn1
3. Cc1sc2c(c1C)C(c1ccc(Cl)cc1)=N[C@@H](CC(=O)NCCCCCNC(=O)COc1ccc(C3CCC(=O)NC3=O)cc1)c1nnc(C)n1-2 (some centres undefined)
4. O=c1[nH]c(=O)c2c(-c3cc4ccccc4oc3=O)ccnc2[nH]1

-31.1
51.1
47.3
61.3

I would be grateful if you could provide growth for each of the following entries.
1. CC1=C(C(=O)OCc2ccccc2)C(c2ccc(-n3cncn3)cc2)n2c(nc3ccccc32)N1 (centres undefined)
2. COc1ccc(-c2nc(SCC(C)C)nc(NCCc3c[nH]c4ccccc34)c2C#N)cc1

1. 86
2. 73.9

----------
Test system: KM12 colon
Assay: NCI-60 one-dose screen, 48 h
Settings: 10 µM unless noted
Experimental: Growth inhibition of the KM12 human tumor cell line is measured as a screen for anti-cancer activity. Cells are grown in 96 well plates and exposed to the test compound for 48 hours. Compounds are tested at a single concentration, which is 10^-5 M for most compounds. The reported endpoint is percent growth (GI% or GIPRCNT), where numbers from 0 - 100% represent growth inhibition, and numbers from -100% - 0 represent cell death. For example, a value of 40 represents 60% growth inhibition. […]
About 83,000 compounds went through this panel and 20% of them were active in at least one assay; those are over-represented in the sample as a whole. Calls of active or inactive are those of the source. How the source made its calls: active means growth percent below 10; inactive means the rest.
One label from this list, please: active, inactive

Observe how each entry below is paired with its result.
CC1CCCCN1CCCNC(=O)N/C(N)=N/c1nc2ccccc2s1 (stereo not given) ... inactive
COc1ccc2cc([C@H](C)C(=O)N/N=C/c3ccc(Br)cc3)ccc2c1 ... inactive
COc1cc(-c2nc3cc(Cl)c(Cl)cc3[nH]2)ccc1OCc1nnc(-c2cccs2)o1 ... inactive
CC1(C)CC[C@]2(C(=O)Nc3ccc(F)cc3)CC[C@]3(C)C(=CCC4[C@@]5(C)C[C@@H](O)[C@H](O)[C@@](C)(CO)C5CC[C@]43C)C2C1 (stereo not given in full) ... inactive

Now examine the next entry.
Returns: the outcome recorded for CSc1ccc(NC(=O)c2ccc3nnn(/C(C#N)=C/c4ccccn4)c3c2)cc1 in this assay.
active

----------
System: OVCAR-8 ovarian
Assay: NCI-60 one-dose screen, 48 h (100 = growth as untreated, 0 = no growth, -100 = all killed)
Conditions: 10 µM unless noted
This is part of a sample that, as a whole, favours compounds with a hit. Of some 83,000 tested, about 20% had one in any assay.
Outcome label depends on growth relative to 30%: at/above gives yes (1), below gives no (0).

Cn1cc(-c2cc3nc(-c4cn(C)c5ncc(Br)cc45)cc(N)n3n2)c2ccccc21 ... no (0)
Cc1cc(C)cc(NC(=O)Cn2cc(COn3nnc4ccccc43)nn2)c1 ... yes (1)
Cc1cccc(NC(=O)[C@]23CCC(C)(C)CC2C2=CCC4[C@@]5(C)C[C@@H](O)[C@H](O)[C@@](C)(CO)C5CC[C@@]4(C)[C@]2(C)CC3)c1 (some centres undefined) ... yes (1)

For this compound, is measured growth 30% or higher? Cc1ccc(-n2c(-c3cc4ccccc4nc3Cl)noc2=O)cc1
yes (1)

Hi team, for O=C(c1ccc(OCCN2CCOCC2)cc1)C1[C@H](c2ccc(Cl)cc2)[C@@H](c2ccccc2)NC12C(=O)Nc1ccc(Cl)cc12 (some centres undefined) , is the recorded growth at or above 30%?
yes (1)

Dear colleague, could you confirm whether Cn1cc(-c2nnc(N)nc2-c2c[nH]c3ccc(Br)cc23)c2cc(Br)cnc21 has growth at or above 30%?
yes (1)

Kindly determine if growth recorded for Cc1sc(C(NC(=O)OCCn2c([N+](=O)[O-])cnc2C)C(F)(F)Cl)nc1-c1ccc(OC(F)(F)F)cc1 (centres undefined) is above or exactly 30%.
no (0)

Hi team, for O=C1N/C(=N\c2nccs2)S/C1=C\C=C/c1ccccc1 , is the recorded growth at or above 30%?
no (0)

Determine whether measured growth meets or exceeds 30% for Cc1cc2nc3c([nH]c2cc1C)c1ccc(=O)cc1n3CCN(C)C
yes (1)

----------
Tested on: PC-3 prostate
Test: NCI-60 one-dose screen, 48 h
Details: 10 µM unless noted
Protocol: Growth inhibition of the PC-3 human tumor cell line is measured as a screen for anti-cancer activity. Cells are grown in 96 well plates and exposed to the test compound for 48 hours. Compounds are tested at a single concentration, which is 10^-5 M for most compounds. The reported endpoint is percent growth (GI% or GIPRCNT), where numbers from 0 - 100% represent growth inhibition, and numbers from -100% - 0 represent cell death. For example, a value of 40 represents 60% growth inhibition. […]
About 83,000 compounds went through this panel and 20% of them were active in at least one assay; those are over-represented in the sample as a whole. Calls of active or inactive are those of the source. Rule for the calls: active = growth percent below 10; inactive = the rest.
Choose the fitting class; nothing outside 1 (yes) = active, 0 (no) = inactive is accepted.

CCC(C)(C)c1ccc(OCCCCN2CCN(c3ccncc3)CC2)cc1 ... 0 (no)

What is the recorded call for this molecule in the test? C=C1CC[C@@H]2[C@]3(C)COC(c4ccco4)O[C@@H]3CC[C@@]2(C)[C@@H]1C/C=C1/C(=O)OCC1OC(C)=O (stereo not given in full)
0 (no)

For N#Cc1c(NCc2ccccc2)n[nH]c1Nc1ccccc1 , which call appears in the assay record?
0 (no)

Status in this test for N#Cc1c(-c2ccc(Br)cc2)nc2n[nH]c(-c3ccc(Br)cc3)c2c1-c1ccc(F)cc1 ?
0 (no)

What call does the record list for O=C(c1ccccc1)C(c1c[nH]c2ccccc12)c1c[nH]c2ccccc12 ?
0 (no)

What is the recorded call for this molecule in the test? O=C(NNc1nc2cc(C(F)(F)F)ccc2n2cccc12)c1cnccn1
1 (yes)

----------
Tested on: IGROV1 ovarian
Experiment: NCI-60 one-dose screen, 48 h (100 = growth as untreated, 0 = no growth, -100 = all killed)
Settings: 10 µM unless noted
About 83,000 compounds went through this panel and 20% of them were active in at least one assay; those are over-represented in the sample as a whole.
READOUT LABEL: growth (%)
Give bare numbers, in %.

I have 2 compounds here; please give me growth for each one.
1. COc1ccc(/C=C/c2nc3ccccc3c(=O)n2CC(=O)Nc2ccc(OC)cc2)cc1
2. CN(C)c1nc(NCCNS(=O)(=O)c2ccc(C(=O)/C=C/c3ccc(Cl)cc3)cc2)nc(Nc2ccc(F)cc2)n1

1: 94.2; 2: -49.6

For every item in the list below, what is its measured growth?
1. COc1ccc2[nH]cc(-c3nc(N)nnc3-c3cn(C)c4ncccc34)c2c1
2. CCCCSc1nc(Nc2ccc(S(N)(=O)=O)cc2)c(C#N)c(-c2ccc(Cl)cc2)n1
3. NS(=O)(=O)c1ccc(-n2cc(-c3cccc(NC(=O)c4cc(N5CCOCC5)cc(C(F)(F)F)c4)c3)nn2)cc1
4. NS(=O)(=O)c1ccc(N=Nc2c(O)n(CC(=O)Nc3ccccc3)c3ccccc23)cc1
5. O=C(/C=C/Nc1ccc(Cl)cc1)c1ccc2c(c1)Nc1ccccc1S2
6. Nc1n[nH]c2cccc(C#Cc3cccc(NC(=O)c4cccc(Cl)c4)c3)c12
7. S=C(Nc1ccc(OCc2nc3ccccc3[nH]2)cc1)NC1CCCCC1
8. C=C1CC[C@@H]2[C@]3(C)COC(c4cn[nH]c4-c4cccc(Br)c4)O[C@@H]3CC[C@@]2(C)[C@@H]1C/C=C1/C(=O)OCC1O (stereo partly specified)

1. 32.9
2. 37.5
3. 72.9
4. 38.9
5. 39.5
6. 21.6
7. 107
8. -60.2

For every item below, please supply its growth.
1. C=C1CC[C@@H]2[C@]3(C)COC(c4cn[nH]c4-c4ccc(OC)cc4)O[C@@H]3CC[C@@]2(C)[C@@H]1C/C=C1/C(=O)OCC1O (stereo partly specified)
2. COCOc1cc2c(=O)c(C)c(C(=O)N[C@@H](Cc3ccccc3)C(O)C(=O)NCc3ccccc3)oc2cc1OC (stereo partly specified)
3. COc1ccc(C(=O)/C=C/c2ccc(Cl)c(Cl)c2)cc1S(N)(=O)=O
4. CC1(C)CC[C@]2(C(=O)O)CC[C@]3(C)C(=CCC4[C@@]5(C)C[C@@H](O)[C@@H]6OC(c7cccc(Br)c7)OC[C@@]6(C)C5CC[C@]43C)C2C1 (stereo partly specified)

1. 17.1
2. 57.6
3. 11.1
4. 66.7

// each listed compound needs a value for growth
1. N#Cc1c(-c2ccc(Cl)cc2)nc2n[nH]c(-c3ccc(Cl)cc3)c2c1-c1ccc(C(F)(F)F)cc1
2. COc1ccc(C(=O)/C=C/c2ccc3ccccc3c2)cc1S(N)(=O)=O
3. O=C(NNc1nc2cc(C(F)(F)F)ccc2n2cccc12)c1cnccn1
4. Cn1cc(-c2cc(N)n3nc(-c4c[nH]c5ccccc45)cc3n2)c2cc(Br)cnc21
5. CC(=O)c1cccc(NC(=O)CCC(=O)NS(=O)(=O)c2ccc(C)cc2)c1
6. Cc1ccc2c(N)c(C(=O)Nc3ccc(OC(F)(F)F)cc3)sc2n1
7. O=C(NN1C(=O)/C(=C/C=C/c2ccc([N+](=O)[O-])o2)SC1=S)c1ccc(Cl)cc1

1: -15; 2: -8.23; 3: -16.3; 4: -41.9; 5: 115; 6: 61.5; 7: -92.9

The reported numbers originate from PubChem BioAssay (NCI).
